- assaySummary: Ocular distribution of CDO in rats, single dose topical ocular vs. oral
- Type: in vivo, Sprague Dawley (SD) rat
- testConditions: Sprague Dawley, sclera; rat, topical eye 100 mg/ml (eye drop of 10 μl) = 1 mg, 3 h; read-out: CDO concentrations Sclera
measuredAttribute: concentration at 3 h
Write down the value, and be sure its unit follows.

Request: Record request: concentration at 3 h value, item O=S(=O)(O)c1cc(O)ccc1O [CDO, Calcium dobesilate monohydrate]
Result: 220 ng/g

====

- assaySummary: Ocular distribution of etamsylate following topical ocular single dose in rats
- Type: in vivo, Sprague Dawley (SD) rat
- testConditions: Sprague-Dawley, rat, retina, 0.126 mg, read-out: CDO μg/g tissue Retina
measuredAttribute: concentration at 1 h (µg/g)
Write the answer as a number in µg/g, unit excluded.

Request: For O=S(=O)(O)c1cc(O)ccc1O [CDO, Calcium dobesilate monohydrate] , what is its reported concentration at 1 h?
Result: 3.48
